Molecular target: FAM19A5 protein (Homo sapiens, UniProt Q7Z5A7)
Assay: competitive inhibition ELISA; competitor: coated LRRC4B(36-576)-hFc
observation-type: Inhibition rate (%)
Lab book: enter the figure in %, no units written.

// worked examples, Inhibition rate (%) included
// GYTYFTTVTAETLETQPGEE [FB-20[A9]] : Inhibition rate (%) value = 21.5

// GYTYFTAVTVETLETQPGEE [FB-20[A6]] : Inhibition rate (%) value = 17.9

// GYTNFTTVTVETLETQPGEE [FB-20[N3]] : Inhibition rate (%) value = -5

Next:
// GATYFTTVTVETLETQPGEE [FB-20[A1]] : Inhibition rate (%) value = 17.2
